# experiment-summary: chemical genetic growth profiling, strain panel (AID 1159580);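 further: tested at 20 µM; growth read once vehicle control cultures reached saturation at 30 °C; 1 = growth at the plate median or of vehicle wells; lower values mean less growth of the strain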
# condition-context: S. cerevisiae deletion strains, growth OD, locus YLR039C, strain RIC1, active compounds read low
Hit rate of the full screen: of about 5,500 compounds, about 2,000 (36%) were called active. Inconclusive results (about 18%) are left out. The list shows a part of the results.
experimental-endpoint: normalized growth
Please give the numeric answer without any surrounding text.

[
  {
    "molecule": "Cc1c(OCC(F)(F)F)ccnc1CS(=O)c1nc2ccccc2[nH]1 (stereo not drawn)",
    "normalized growth": 0.985
  },
  {
    "molecule": "COP(N)(=O)SC (stereo not drawn)",
    "normalized growth": 1.04
  },
  {
    "molecule": "NC[C@H]1O[C@H](O[C@H]2[C@H](O)[C@@H](O[C@H]3O[C@H](CO)[C@@H](O)[C@H](N)[C@H]3O)[C@H](N)C[C@@H]2N)[C@H](N)[C@@H](O)[C@@H]1O",
    "normalized growth": 1.01
  },
  {
    "molecule": "COc1cc(C(=O)N2CCOCC2)cc(OC)c1OC",
    "normalized growth": 1.04
  },
  {
    "molecule": "COc1ccccc1N1CCN(C(=O)c2cccs2)CC1",
    "normalized growth": 1.01
  },
  {
    "molecule": "NC(N)=Nc1ccc(Cl)cc1",
    "normalized growth": 1.1
  },
  {
    "molecule": "O=C(O)c1oc(C(=O)O)c(OCc2ccccc2)c1OCc1ccccc1",
    "normalized growth": 0.993
  },
  {
    "molecule": "O=[N+]([O-])c1cccnc1Oc1ccc(Cl)cc1",
    "normalized growth": 0.657
  },
  {
    "molecule": "CC[C@@]1(O)C(=O)OCc2c1cc1n(c2=O)Cc2cc3cc(O)ccc3nc2-1",
    "normalized growth": 1.03
  },
  {
    "molecule": "COc1ccc(Br)c(-c2nnc(-c3ccccc3[N+](=O)[O-])o2)c1",
    "normalized growth": 1.07
  }
]

Input: Which normalized growth value is on record for Cc1cc(N)c2ccccc2[n+]1CCCCCCCCCC[n+]1c(C)cc(N)c2ccccc21 ?
Output: 0.0806

Input: Which normalized growth value is on record for COC(CNc1cccc(Cl)c1C#N)OC ?
Output: 0.983

Input: Which normalized growth value is on record for CCOC(=O)/C(C#N)=C/Nc1ccc2c(c1)OCO2 ?
Output: 0.795

Input: Which normalized growth value is on record for CC(=O)N1CCN(c2ccc(OCC3CO[C@](Cn4ccnc4)(c4ccc(Cl)cc4Cl)O3)cc2)CC1 (stereo partly drawn) ?
Output: 0.444

Input: Which normalized growth value is on record for COc1ccccc1N1CCN(C(=O)C(C)Nc2ccccn2)CC1 (stereo not drawn) ?
Output: 0.997

Input: Which normalized growth value is on record for O=C(NCCCCO)OCC1c2ccccc2-c2ccccc21 ?
Output: 1.02

Input: Which normalized growth value is on record for CCCCCCCCCCCCSc1nnc(N)s1 ?
Output: 0.981

Input: Which normalized growth value is on record for CC[C@@]1(O)C(=O)OCc2c1cc1n(c2=O)Cc2cc3ccccc3nc2-1 ?
Output: 0.692

====

# experiment-summary: chemical genetic growth profiling, strain panel (AID 1159580);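 further: tested at 20 µM; growth read once vehicle control cultures reached saturation at 30 °C; 1 = growth at the plate median or of vehicle wells; lower values mean less growth of the strain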
# condition-context: S. cerevisiae deletion strains, growth OD, locus YDR318W, strain mcm21, active compounds read low
Out of some 5,500 compounds screened, about 2,000 (36%) were called active. About 18% were inconclusive and are not listed. The list shows a part of the results.
Measured normalized growth of individual entries
Please give the numeric answer without any surrounding text.

[
  {
    "molecule": "C/C=C(/C)C(=O)O[C@@H]1Cc2c(ccc3ccc(=O)oc23)OC1(C)C",
    "readout-value": 0.962
  },
  {
    "molecule": "C/C=C/CC(C)C(O)C1C(=O)NC(CC)C(=O)N(C)CC(=O)N(C)C(CC(C)C)C(=O)NC(C(C)C)C(=O)N(C)C(CC(C)C)C(=O)NC(C)C(=O)NC(C)C(=O)N(C)C(CC(C)C)C(=O)N(C)C(CC(C)C)C(=O)N(C)C(C(C)C)C(=O)N1C (stereo unspecified)",
    "readout-value": 1.03
  },
  {
    "molecule": "O=C(/C=C(\\O)c1ccccc1)c1ccccc1O",
    "readout-value": 0.844
  },
  {
    "molecule": "COc1ccc(-c2cc(=O)c3c(O)cc(O)cc3o2)cc1",
    "readout-value": 0.982
  },
  {
    "molecule": "COc1nc(NC(C)C)nc(NC(C)C)n1",
    "readout-value": 1.02
  },
  {
    "molecule": "CC(C)(C)NCC(O)COc1cccc2c1C[C@H](O)[C@H](O)C2 (stereo partly specified)",
    "readout-value": 0.979
  },
  {
    "molecule": "NC(=O)c1ccccc1O",
    "readout-value": 1.01
  },
  {
    "molecule": "CC12CCC3C(CCC4(O)CC(O)CCC34/C=N/NC(N)=O)C1(O)CCC2C1=CC(=O)OC1 (stereo unspecified)",
    "readout-value": 0.985
  },
  {
    "molecule": "CC(=O)N1CCN(c2ccc(OCC3CO[C@](Cn4ccnc4)(c4ccc(Cl)cc4Cl)O3)cc2)CC1 (stereo partly specified)",
    "readout-value": 0.0866
  },
  {
    "molecule": "Cc1cc(N)c2ccccc2[n+]1CCCCCCCCCC[n+]1c(C)cc(N)c2ccccc21",
    "readout-value": 0.0702
  }
]

Input: Which normalized growth value is on record for CC(=O)O[C@@H]1c2c(ccc3ccc(=O)oc23)OC(C)(C)[C@@H]1OC(=O)CC(C)C ?
Output: 0.978
